TEST NAME: caspase-8 TRAIL sensitization, hit retest, confirmation, cell-based, NB7+caspase-8, with/without TRAIL, luminescence panel (AID 651596)
EXPERIMENTAL PARAMETERS: NB7 neuroblastoma + caspase-8, without TRAIL, luminescence viability, without TRAIL, mean of runs, at 10 µM
QUANTITY MEASURED: activity (%)
Give your result in % as a bare value.

Some solved entries appear below for comparison.
COMPOUND: COc1ccc(OCC(=O)N/N=C(\C)c2cc3ccccc3o2)cc1
activity, %: 70.2
//
COMPOUND: C=C1C(=O)OC2C=C(CO)C3OC3C3OC3(C)CC(OC(=O)/C(=C/C)COC(C)=O)C12 (stereo unspecified)
activity, %: 81
//
COMPOUND: CC1(C)N=C(N)N=C(N)N1c1ccc(OCC(=O)N2CCOCC2)c(Cl)c1
activity, %: 86

Query :: I would be grateful if you could share the reported activity for "Cc1ccc(C(=O)OCn2ncc(Cl)c(Cl)c2=O)cc1" .
Result :: 100

Query :: And CCC(OC(=O)c1ccc(S(C)(=O)=O)c([N+](=O)[O-])c1)C(=O)NC1C2CC3CC(C2)CC1C3 (stereo unspecified) ?
Result :: 97.7

Query :: Same again, this time with "Cc1ccccc1C(=O)N1CCN(c2ccc(NC(=O)c3ccc([N+](=O)[O-])o3)cc2)CC1"
Result :: 99.5

Query :: Try "COc1cc2nc(CN(C)Cc3ccc(C(C)(C)C)cc3)[nH]c(=O)c2cc1OC" next.
Result :: 68

Query :: Subsequent entry: "CCOc1ccc(-c2ccc(SCC)nn2)cc1"
Result :: 71.5

Query :: How about this compound: "O=C(O)c1ccc(N/N=C/c2cc3cc4c(cc3nc2Cl)OCCO4)cc1"
Result :: 95.3

Query :: What do you have for "O=C1C(=C2CCc3ccccc32)Cc2ccccc21" ?
Result :: 48.9

Query :: Try the compound "O=C(NC(=S)Nc1ccc(Br)cn1)c1cccs1"
Result :: 73.2

Query :: Next compound up: "COCCNC(=O)c1c[nH]c2ccc(S(=O)(=O)N3CCc4ccccc43)cc2c1=O"
Result :: 82.7

Query :: Proceed to "CC(C)(C)c1ccc(-c2noc(CCC(=O)N3CCOCC3)n2)cc1"
Result :: 64.2

Origin of values: PubChem BioAssay
